Entries annotated with measured pIC50
experimental-system: CpunPBP5 (Conogethes punctiferalis)
test-summary: Fluorescence displacement (competitive, 1-NPN) binding assay
setup-conditions: pH = 7.4; 1-NPN 2 μM as fluorescent reporter; 2 μM protein; read-out: IC50
Please note pIC50 is a logarithmic value: minus log10 of concentration in mol/L. Answer with that number alone.

Please review the following examples before continuing.
{"compound": "C=C(C)[C@H]1CC=C(C)CC1", "experimental-system": "CpunPBP5 (Conogethes punctiferalis)", "pIC50": 4.97}
{"compound": "CCCCC/C=C/C=O [Trans-2-octanal]", "experimental-system": "CpunPBP5 (Conogethes punctiferalis)", "pIC50": 4.91}

Please give measured pIC50 of the following entry: CCCCC/C=C/CCCCCCCCC=O [E10-16:Ald, (E)-10-hexadecenal]
5.88

For the compound CCCCCCC=O , give its reported pIC50.
4.71

Output pIC50 of C=C1CC/C=C(\C)CC[C@@H]2[C@@H]1CC2(C)C (relative stereo) [Trans-caryopyllene]
5.33

Output pIC50 of CCCCCCCCCCCCCCCC=O
5.35

---

experimental-system: CpunPBP5 (Conogethes punctiferalis)
test-summary: Fluorescence displacement (competitive, 1-NPN) binding assay
setup-conditions: pH = 7.4; calculated from IC50: KD = [IC50]/(1+[1-NPN]/K1-NPN); read-out: KD (μM), calculated dissociation constant
# Kd per entry
Numbers only; they are read as µM.

Quote Kd with test system CpunPBP5 (Conogethes punctiferalis) for CCCCCCCCCCC=O [Undecanal]
7.01

Name the value of Kd reported for CCCCC/C=C/C=O [Trans-2-octanal] when tested on CpunPBP5 (Conogethes punctiferalis).
9.89

Lab note: CpunPBP5 (Conogethes punctiferalis) assay, enter Kd for CCCCCCC=O [Heptanal] here
15.9

---

experimental-system: CpunPBP5 (Conogethes punctiferalis, UniProt A0A0M4FIS7)
Sequence (A0A0M4FIS7 entry or part of it): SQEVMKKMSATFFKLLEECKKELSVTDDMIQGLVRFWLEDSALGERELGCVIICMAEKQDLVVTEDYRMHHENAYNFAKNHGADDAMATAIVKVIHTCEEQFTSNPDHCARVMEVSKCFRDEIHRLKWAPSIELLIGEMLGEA
test-summary: Fluorescence displacement (competitive, 1-NPN) binding assay
Protocol: The fluorescence intensity was recorded on a FluoroMax-4 spectrophotometer (Horiba Scientific, USA) at room temperature using a 1 cm light path fluorimeter quartz cuvette. The fluorescent probe N-phenyl-1-naphthylamine (1-NPN) and all the tested chemicals were dissolved in HPLC purity methanol. The final concentration was prepared 1 mM. […] The fluorescence of 1-NPN was excited at 337 nm and emission spectra were recorded between 300 and 450 nm. […]
reported-metric: IC50 (µM)
State the answer as a number, implicitly in µM.

Use the examples below as a reference point.
{"molecule": "COc1cc(C=O)ccc1O [Vanillin]", "unit-string": "µM", "value-observed": 25.1}
{"molecule": "CC1=CCC2CC1C2(C)C (stereo not drawn) [α-pinene]", "unit-string": "µM", "value-observed": 14.1}
{"molecule": "C=CC(C)(O)CCC=C(C)C (centres unmarked) [Linalool]", "unit-string": "µM", "value-observed": 17}
{"molecule": "CCCCCCCCCCCCCCO [1-tetrodecanol]", "unit-string": "µM", "value-observed": 3.53}
{"molecule": "CC(=O)/C=C/C1C(C)=CCCC1(C)C (stereo not drawn) [α-ionone]", "unit-string": "µM", "value-observed": 8.39}
{"molecule": "CC/C=C\\CCO [cis-3-hexen-1-ol]", "unit-string": "µM", "value-observed": 18.4}
{"molecule": "C=C1CCC2CC1C2(C)C (stereo not drawn) [β-pinene]", "unit-string": "µM", "value-observed": 11.5}

Quickly give me recorded IC50 for CC(=O)/C=C/C1=C(C)CCCC1(C)C [β-ionone]
12.2

---

Here, each record is paired with measured IC50 data.
experimental-system: CpunPBP2-m2 (CpunPBP2-Phe33 mutant) (Conogethes punctiferalis, UniProt A0A1D6X8W8, F57Y)
Sequence (A0A1D6X8W8 entry or part of it F57Y): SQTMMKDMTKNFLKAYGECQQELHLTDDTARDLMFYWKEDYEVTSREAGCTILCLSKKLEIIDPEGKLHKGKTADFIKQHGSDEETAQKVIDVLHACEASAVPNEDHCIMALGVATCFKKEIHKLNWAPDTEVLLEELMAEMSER
test-summary: Fluorescence displacement binding assay of mutants
Give just the numeric value; nM need not be written.

{"compound": "CCCCC/C=C\\CCCCCCCCC=O [Z10-16:Ald, (Z)-10-hexadecenal]", "IC50 [nM]": 790}

Switching to the query record.
Consider the compound CCCCC/C=C/CCCCCCCCC=O [E10-16:Ald, (E)-10-hexadecenal] . State its measured IC50.
1180

---

experimental-system: CpunPBP5 (Conogethes punctiferalis)
test-summary: Fluorescence displacement (competitive, 1-NPN) binding assay
setup-conditions: pH = 7.4; 1-NPN 2 μM as fluorescent reporter; 2 μM protein; read-out: IC50
Response field label: string, one of class 1 (IC50 strictly below 8 µM) or class 0.

# example entries with known answers
{"compound": "CCCCCCCCCCCCCCCC(=O)O", "class-label": "class 1"}
{"compound": "CCCCCC/C=C/C=O [Trans-2-nonenal]", "class-label": "class 0"}
{"compound": "CCCCC/C=C\\CCCCCCCCC=O [Z10-16:Ald, (Z)-10-hexadecenal]", "class-label": "class 1"}
{"compound": "CCCCCCCCC=O", "class-label": "class 0"}
{"compound": "CCCCCCCCCC=O", "class-label": "class 0"}
{"compound": "C=CC(=C)CC/C=C(\\C)CCC=C(C)C", "class-label": "class 1"}

Now, please, on to the next compound.
# TODO verify IC50 < 8 µM strictly for this compound: CCCCCCCCCCC=O
class 0

---

Reported Kd values for a set of molecules
experimental-system: CpunPBP5 (Conogethes punctiferalis, UniProt A0A0M4FIS7)
test-summary: Fluorescence displacement (competitive, 1-NPN) binding assay
Write it as a number; the unit µM goes unstated.

{"molecule": "c1ccc(Nc2cccc3ccccc23)cc1 [1-NPN, N-phenyl-1-naphthylamine, reference compound]", "reported-metric": "Kd", "unit-string": "µM", "value-observed": 0.58}
{"molecule": "CC(=O)/C=C/C1C(C)=CCCC1(C)C (stereo not drawn) [α-ionone]", "reported-metric": "Kd", "unit-string": "µM", "value-observed": 6.79}

Using known records, supply Kd for CC(=O)/C=C/C1=C(C)CCCC1(C)C [β-ionone]
9.85

Report Kd for CCCCCCCCCCCCCCO [1-tetrodecanol]
2.86

Give Kd for the following molecule: CC1=CCC2CC1C2(C)C (stereo not drawn) [α-pinene]
11.4

Give a short answer stating reported Kd for CC/C=C\CCO [cis-3-hexen-1-ol] .
14.9

Read off the recorded Kd for C=C1CCC2CC1C2(C)C (stereo not drawn) [β-pinene]
9.3

Please report the measured Kd for COc1cc(C=O)ccc1O [Vanillin]
20.4

Tell me measured Kd for C=CC(C)(O)CCC=C(C)C (stereo not drawn) [Linalool] please.
13.7

---

experimental-system: CpunPBP5-m3 (CpunPBP5-Val115 mutant) (Conogethes punctiferalis, UniProt A0A0M4FIS7, V140A)
Sequence (A0A0M4FIS7 entry or part of it V140A): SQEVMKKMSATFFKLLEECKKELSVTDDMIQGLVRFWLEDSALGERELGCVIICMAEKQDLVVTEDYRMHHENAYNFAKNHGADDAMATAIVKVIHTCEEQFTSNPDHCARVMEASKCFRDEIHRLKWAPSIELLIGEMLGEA
test-summary: Fluorescence displacement binding assay of mutants
reported-metric: pKd
Please express pKd as -log10 of the molar concentration.

{"compound": "CCCCC/C=C\\CCCCCCCCC=O [Z10-16:Ald, (Z)-10-hexadecenal]", "pKd": 6.09}

Look up pKd of CCCCC/C=C/CCCCCCCCC=O [E10-16:Ald, (E)-10-hexadecenal] and report it.
5.73

---

experimental-system: CpunPBP5 (Conogethes punctiferalis, UniProt A0A0M4FIS7)
test-summary: Fluorescence displacement (competitive, 1-NPN) binding assay
setup-conditions: ratio of fluorescence intensity at the pheromone concentration of 6 mM to the initial fluorescence intensity; pH = 7.4; read-out: Int (%)
reported-metric: activity at 6000 µM

// solved cases for activity at 6000 µM follow
{"compound": "COc1cc(C=O)ccc1O [Vanillin]", "activity at 6000 µM": "71.2%"}
{"compound": "CCCCCC/C=C/C=O [Trans-2-nonenal]", "activity at 6000 µM": "59%"}
{"compound": "C=CC(C)(O)CCC=C(C)C (stereo not shown) [Linalool]", "activity at 6000 µM": "66.9%"}
{"compound": "CCCCC/C=C\\CCCCCCCCC=O [Z10-16:Ald, (Z)-10-hexadecenal]", "activity at 6000 µM": "40.6%"}
{"compound": "CCCCCCCCCCC=O [Undecanal]", "activity at 6000 µM": "58.7%"}
{"compound": "CCCCCCC=O [Heptanal]", "activity at 6000 µM": "68.3%"}

Input CCCCCCCCCC=O [Decanal] , output reported activity at 6000 µM.
72.6%

Return activity at 6000 µM for the following compound: CC1=CCC2CC1C2(C)C (stereo not drawn) [α-pinene]
74.9%

Tell me activity at 6000 µM reported for CCC(C)CCCC(C)C (stereo not shown) [2,6-Dimethyloctane]
54.8%

Supply reported activity at 6000 µM belonging to this compound: CCCCCCCCC=O [Nonanal]
65.8%
